# reported GFP response vs DMSO; entries follow
experiment_description: RPL19A-GFP modulators, yeast TOR pathway, confirmation, cell-based, S. cerevisiae, flow cytometry, cherry picks, mother/daughter gates (AID 2270)
measurement_parameters: S. cerevisiae RPL19A-GFP strain, 3 h, measured here: daughter cell gate, at 10 µM, stronger effect = lower value, 100 = same GFP as DMSO wells
measurement_type: GFP response vs DMSO (%)

structure_notation=O=S(=O)(c1ccc(-c2ccccc2)cc1)N1CCOCC1 readout_value=96.1
structure_notation=O=[N+]([O-])c1cc(CN2CCN(c3cccc(C(F)(F)F)c3)CC2)c2cccnc2c1O readout_value=96.4
structure_notation=O=C(N=Nc1c(O)[nH]c2ccccc12)c1ccco1 readout_value=98.6
structure_notation=COc1ccc(C(=O)Oc2ccc(/C=N/NC(=O)c3ccccc3OC)cc2[N+](=O)[O-])cc1 readout_value=103
structure_notation=Cc1cc(C)c(C(=O)COC(=O)c2ccc([N+](=O)[O-])o2)cc1C readout_value=102

---

experiment_description: modulators of CIT2-GFP expression in yeast, primary screen, S. cerevisiae, GFP fusion, multiplex flow cytometry (AID 1870);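 note: barcoded CIT2-GFP strain pooled with four other GFP strains with rapamycin as positive control; median GFP fluorescence per well over plate mean of DMSO wells so 100% = DMSO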
measurement_parameters: 3 h, at 10 µM, stronger effect = higher value
measurement_type: percent response of DMSO control (%)

structure_notation=Cc1ccc(CSCC(=O)NCCCN2CCOCC2)cc1 unit_info=% readout_value=95.4
structure_notation=CC(C)Cn1c(=S)[nH]c2cc(C(=O)O)ccc2c1=O unit_info=% readout_value=108
structure_notation=C[C@]12CC[C@@H]3c4ccc(OS(=O)(=O)O)cc4CC[C@H]3[C@@H]1CCC2=O unit_info=% readout_value=96.6
structure_notation=Clc1ccc(OCCCN2CCCCC2)c(Br)c1 unit_info=% readout_value=112

---

Readings of inhibition for the listed molecules
target_or_system: Integrin beta-1 (Homo sapiens) + Integrin alpha-4 (Homo sapiens) (UniProt P13612+P05556)
Sequence (P05556 whole entry, looked up): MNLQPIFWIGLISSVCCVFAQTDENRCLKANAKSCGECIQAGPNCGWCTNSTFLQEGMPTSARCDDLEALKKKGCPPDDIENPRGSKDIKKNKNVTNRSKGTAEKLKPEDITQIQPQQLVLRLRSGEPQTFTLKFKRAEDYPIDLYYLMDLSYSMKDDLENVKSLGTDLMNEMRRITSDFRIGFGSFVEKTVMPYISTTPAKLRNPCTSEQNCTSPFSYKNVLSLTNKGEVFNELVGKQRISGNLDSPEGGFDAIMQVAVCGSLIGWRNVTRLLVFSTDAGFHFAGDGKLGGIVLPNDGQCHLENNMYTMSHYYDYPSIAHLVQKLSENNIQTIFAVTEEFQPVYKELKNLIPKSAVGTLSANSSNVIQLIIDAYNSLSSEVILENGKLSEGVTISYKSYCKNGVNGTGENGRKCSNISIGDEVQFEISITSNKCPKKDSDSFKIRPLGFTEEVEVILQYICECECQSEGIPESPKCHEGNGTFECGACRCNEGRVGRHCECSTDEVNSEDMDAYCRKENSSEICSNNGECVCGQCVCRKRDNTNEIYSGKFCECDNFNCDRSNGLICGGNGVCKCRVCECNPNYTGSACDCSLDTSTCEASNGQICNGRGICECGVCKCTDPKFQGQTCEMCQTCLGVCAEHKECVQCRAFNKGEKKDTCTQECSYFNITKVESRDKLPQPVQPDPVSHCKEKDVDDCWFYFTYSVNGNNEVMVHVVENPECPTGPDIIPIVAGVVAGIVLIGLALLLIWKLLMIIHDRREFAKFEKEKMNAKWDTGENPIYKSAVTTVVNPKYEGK
Sequence (P13612 whole entry, looked up): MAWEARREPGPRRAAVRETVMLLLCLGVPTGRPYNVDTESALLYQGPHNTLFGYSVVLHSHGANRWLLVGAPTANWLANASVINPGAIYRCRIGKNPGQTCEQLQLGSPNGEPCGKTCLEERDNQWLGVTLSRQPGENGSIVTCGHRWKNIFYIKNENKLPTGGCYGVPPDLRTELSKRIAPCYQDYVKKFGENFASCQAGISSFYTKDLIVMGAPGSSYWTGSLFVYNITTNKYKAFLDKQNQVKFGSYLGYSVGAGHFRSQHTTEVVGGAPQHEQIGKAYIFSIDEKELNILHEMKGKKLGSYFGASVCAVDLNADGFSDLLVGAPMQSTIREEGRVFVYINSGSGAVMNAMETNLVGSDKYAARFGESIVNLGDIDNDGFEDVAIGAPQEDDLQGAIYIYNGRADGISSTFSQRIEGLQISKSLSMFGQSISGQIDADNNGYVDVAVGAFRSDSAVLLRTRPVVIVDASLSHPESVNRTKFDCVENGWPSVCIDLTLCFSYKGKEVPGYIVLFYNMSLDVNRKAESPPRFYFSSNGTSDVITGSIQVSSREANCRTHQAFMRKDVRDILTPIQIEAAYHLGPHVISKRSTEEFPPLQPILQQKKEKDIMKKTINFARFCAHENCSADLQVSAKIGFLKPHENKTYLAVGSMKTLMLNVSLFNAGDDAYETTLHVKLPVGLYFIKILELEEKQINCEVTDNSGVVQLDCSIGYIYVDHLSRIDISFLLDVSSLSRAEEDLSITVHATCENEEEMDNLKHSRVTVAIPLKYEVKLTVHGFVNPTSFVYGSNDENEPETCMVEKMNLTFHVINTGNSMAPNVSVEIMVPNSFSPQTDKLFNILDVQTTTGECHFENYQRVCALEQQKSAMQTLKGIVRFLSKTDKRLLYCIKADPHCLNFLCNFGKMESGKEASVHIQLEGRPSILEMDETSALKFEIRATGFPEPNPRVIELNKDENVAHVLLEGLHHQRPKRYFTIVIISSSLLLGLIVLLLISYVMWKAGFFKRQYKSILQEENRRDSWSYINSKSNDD
experiment_description: inhibition of HUTS-21 binding to VLA-4, pilot screen, VLA-4 allosteric modulator project, U937 cells, HUTS-21 mAb, flow cytometry, validation set (AID 2674);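 note: antibody binding induced by the VLA-4 ligand LDV present at three times its Kd; 0% = LDV ligand with antibody and no compound and 100% = antibody without LDV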
measurement_parameters: HUTS-21 LIBS mAb binding, at 6.7 µM, stronger effect = higher value, binding induced by LDV ligand
measurement_type: inhibition (%)

molecule=CCc1c(C)c2ccc(OCC(=O)OC(C)C)c(C)c2oc1=O unit_info=% readout_value=7.22
molecule="O=C(c1ccc(-c2ccccc2)c(F)c1)C1CCCN(C(=O)c2cncs2)C1 (centres undefined)" unit_info=% readout_value=11.9
molecule=O=P(c1ccccc1)(c1ccccc1)c1nc(-c2ccc(Cl)cc2)oc1N1CCOCC1 unit_info=% readout_value=4.27
molecule=Cc1ccccc1OCCSc1nc2ncnc(N)c2[nH]1 unit_info=% readout_value=8.15
molecule=COc1ccc(CCN(C)CC(=O)Nc2cc(C)nc3ccccc23)cc1OC unit_info=% readout_value=10.5
molecule="COc1ccc(NC(=O)C2C(=O)N(CCO)C3(C)CC2c2ccccc2O3)cc1 (centres undefined)" unit_info=% readout_value=5.49
molecule=CC(=O)[C@@]1(O)CC[C@H]2[C@@H]3CCC4=CC(=O)CC[C@]4(C)[C@H]3CC[C@@]21C unit_info=% readout_value=-13.9
molecule=O=C(O)/C=C/c1ccc(O)c(O)c1 unit_info=% readout_value=23.1
molecule="CCNCCC(CCC(C)C)c1ccc2c(c1)OCO2 (centres undefined)" unit_info=% readout_value=9.09
molecule="CO/N=C(\\C(=O)N[C@@H]1C(=O)N2C(C(=O)O)=C(COC(C)=O)CS[C@H]12)c1csc(N)n1 (stereo in doubt)" unit_info=% readout_value=5.36
molecule=CC1(C)CC(=O)c2cc(O)ccc2O1 unit_info=% readout_value=13.8
molecule=CC(C)Cc1cc(C(=O)N2CCC(N3CCC(C(=O)N4CCCC4)CC3)CC2)n[nH]1 unit_info=% readout_value=-2.11
molecule=CC(=O)C1=C(NC(=O)c2ccc(C(F)(F)F)cc2)C[C@@H]2[C@H]1C2(C)C unit_info=% readout_value=-3.77
molecule=CC1(C)Cc2nc3oc4c(NCc5ccccc5)ncnc4c3cc2CO1 unit_info=% readout_value=4.42
molecule=OC(CCCN1CCCCC1)(c1ccccc1)c1ccccc1 unit_info=% readout_value=19.1
molecule=Nc1ccc(N=Nc2ccccc2)c(N)n1 unit_info=% readout_value=28.7
molecule=C[C@H](NC(=O)NCCc1ccccc1)C(=O)O unit_info=% readout_value=2.3
molecule=Cn1c2ccc(CC(=O)O)cc2c2cc(CC(=O)O)ccc21 unit_info=% readout_value=10.5
molecule=C[C@H]1O[C@H]1P(=O)(O)O unit_info=% readout_value=15.1

---

experiment_description: modulators of CIT2-GFP expression in yeast, confirmation, S. cerevisiae, GFP fusion, cherry picks, mother/daughter gates (AID 2274)
measurement_parameters: S. cerevisiae CIT2-GFP strain, flow cytometry, 3 h; at 10 µM; stronger effect = higher value
measurement_type: GFP response, % of DMSO (%)

compound=COc1cc(NC(=O)c2ccc(C)cc2C)ccc1NC(=O)c1cc2ccccc2o1 measurement_type="GFP response, % of DMSO" readout_value=97.2
compound=Cc1ccc(/C=N/Nc2ncc(Cl)cc2Cl)s1 measurement_type="GFP response, % of DMSO" readout_value=107
compound=Cc1cccc(NC(=O)c2ccccc2O)c1C measurement_type="GFP response, % of DMSO" readout_value=95.8
compound=CCc1cccc2sc(N3CCN(C(=O)c4ccc([N+](=O)[O-])o4)CC3)nc12 measurement_type="GFP response, % of DMSO" readout_value=108
compound="COc1ccc(C2CC(c3c(-c4ccccc4)c4cc(Cl)ccc4[nH]c3=O)=NN2S(C)(=O)=O)cc1OC (configuration not stated)" measurement_type="GFP response, % of DMSO" readout_value=99.7
compound=O=C(NCc1cccnc1)c1cnc2n(c1=O)CCS2 measurement_type="GFP response, % of DMSO" readout_value=98.6
compound="Cc1ccc2c(c1)c1c(c(=O)n(-c3ccccc3C)c(=O)n1CC(=O)NCC1CCCO1)n2C (configuration not stated)" measurement_type="GFP response, % of DMSO" readout_value=103

---

Listed next: entries and their corresponding inhibition.
target_or_system: AP-2 complex subunit beta (Homo sapiens)
experiment_description: inhibitors of arrestin peptide binding to AP2, pilot screen, biochemical, validation set, GST-AP2 beads, flow cytometry (AID 504541);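 note: AP2 carries R879A mutation and is captured from E. coli lysate; bead-bound FITC arrestin peptide fluorescence measuring arrestin peptide binding to AP2; 0% = DMSO wells and 100% = excess unlabeled arrestin peptide control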
measurement_parameters: FITC arrestin peptide, at 10 µM, stronger effect = higher value, AP2 beta2 appendage fragment, R879A mutant
measurement_type: inhibition (%)

compound="Cc1ccc2c(c1)OC(=O)CC2c1ccccc1 (stereo unspecified)" measurement_type=inhibition unit_info=% readout_value=31.1
compound="O=C(CCN1CCC(c2ccccc2)C1)c1ccc2c(c1)OCCO2 (stereo unspecified)" measurement_type=inhibition unit_info=% readout_value=-9.51
compound=CNC[C@H](O)c1cccc(O)c1 measurement_type=inhibition unit_info=% readout_value=-4.38
compound=Cc1cc(-c2ccccc2)nnc1NCCN1CCOCC1 measurement_type=inhibition unit_info=% readout_value=-1.22
compound=O=C(Nc1c(C(=O)O)[nH]c2ccccc12)NC1CCCCC1 measurement_type=inhibition unit_info=% readout_value=3.04
compound="CC(NCCC(c1ccccc1)c1ccccc1)c1ccccc1 (stereo unspecified)" measurement_type=inhibition unit_info=% readout_value=0.65

---

Test system: anti-desmoglein-3 scFv antibody binding to human DSG3
experiment_description: inhibitors of anti-DSG3 scFv binding to DSG3, pilot screen, biochemical, validation compound set, bead-based, flow cytometry (AID 588368);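 note: signal is the median channel fluorescence of bead-bound GFP antibody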
measurement_parameters: Protein G beads, DSG3-Fc, scFv-GFP binding, at 10 µM, stronger effect = lower value
measurement_type: binding (% of control) (%)

compound=Cc1ccc(CSCC(=O)NCCCN2CCOCC2)cc1 readout_value=104
compound=COc1ccc(-c2onc(C)c2-c2ccc(C(=O)OC(C)C)o2)c(O)c1 readout_value=105
compound="CCc1cccc(OC2OC(CO)C(O)C(O)C2NC(C)=O)c1 (stereo not given)" readout_value=103
compound=O=C1Nc2ccc3sc4ccccc4c3c2C1=O readout_value=102
compound=CC(=Nc1ccccc1)C1=C(O)CCCC1=O readout_value=97.7

---

experiment_description: inhibitors of CD8+ T cell-vesicle binding, pilot screen, LFA-1/ICAM-1 modulator project, MLPCN validation set, flow cytometry (AID 2523)
measurement_parameters: 2C mouse CD8+ T cells, at 7 µM, stronger effect = lower value; measured here: CD8+/vesicle+ event percentage
measurement_type: double positive events (%)

compound="CC(NC(=O)c1ccc(OC2CCN(Cc3ccccn3)CC2)cc1)c1ccccc1 (stereo unspecified)" readout_value=59.3
compound=COc1cc(/C=C/C(=O)N2CCCC2)cc(OC)c1OC readout_value=61.5
compound=O=c1c2ccccc2nnn1Cc1cccc2ccccc12 readout_value=61
compound="CC(=O)OCC(=O)C1=CCC2C3CCC4=CC(=O)C=CC4(C)C3(F)C(OC(C)=O)CC12C (stereo unspecified)" readout_value=59
compound=COC(=O)CN1CC(=O)N(c2ccccc2)C1=S readout_value=59.2
compound=CC(=O)OCC(=O)[C@H]1CC[C@H]2[C@@H]3CC=C4C[C@@H](O)CC[C@]4(C)[C@H]3CC[C@]12C readout_value=59.7
